# System: CCRIS mutagenicity, Ames/micronucleus/aberration tests
# Test Method Notes: CCRIS mutagenicity studies
# Condition Set: Test System: AMES SALMONELLA TYPHIMURIUM; Strain/Indicator: TA100; Metabolic Activation: NONE; Method: STANDARD PLATE
The source made the active and inactive calls. The rule behind the calls is not given here.
Respond using exactly one of the listed classes: True = active, False = inactive

Please review the following examples before continuing.
CN(C)c1ccc(/C=C/C(=O)c2ccccc2)cc1	False
O=C(Nc1cccc([N+](=O)[O-])c1)c1csc([N+](=O)[O-])c1	True
CC(C)COC(=O)CCCCC(=O)OCC(C)C	False

[in] Write down the call the test reported for this compound. Item: `CC(C)CC(=O)OCc1cocc2c(C=O)ccc1-2`
[out] True

###

# Test system: CCRIS mutagenicity, Ames/micronucleus/aberration tests
# Test Method Notes: CCRIS mutagenicity studies
# Condition Set: Test System: AMES SALMONELLA TYPHIMURIUM; Strain/Indicator: TA100; Metabolic Activation: NONE; Method: PREINCUBATION
The source made the active and inactive calls. How the calls were made is not given here.
Result category, one only: active, inactive

Reference set, count: 6
OCCN1CN(CCO)CN(CCO)C1	inactive
CC(=O)NBr	inactive
Cc1cc2ccccc2c2ccc3c(c12)[C@@H]1O[C@@H]1[C@H](O)[C@H]3O	active
Nc1ccc(/C=C/c2ccc(N)c(S(=O)(=O)O)c2)c(S(=O)(=O)O)c1	inactive
N[C@@H](CSc1c(Cl)c(Cl)c(Cl)c(Cl)c1Cl)C(=O)O	inactive
N#CC(Cl)Cl	active

[in] Write down the call the test reported for this molecule. Item: COc1ccc(CCC2CO2)cc1 (stereo not given)
[out] active

[in] For `O=C(O)CCCCCCCCC(=O)O` , which call appears in the assay record?
[out] inactive

###

# Test system: CCRIS mutagenicity, Ames/micronucleus/aberration tests
# Test Method Notes: CCRIS mutagenicity studies
# Condition Set: Test System: AMES SALMONELLA TYPHIMURIUM; Strain/Indicator: TA104; Metabolic Activation: NONE; Method: STANDARD PLATE
# Text: The CCRIS database contains chemical records with carcinogenicity, mutagenicity, tumor promotion, and tumor inhibition test results. It was developed by the National Cancer Institute (NCI). Data are derived from studies cited in primary journals, current awareness tools, NCI reports, and other sources. Test results have been reviewed by experts in carcinogenesis and mutagenesis. CCRIS provides historical information from the years 1985 - 2011. It is no longer updated. […]
Active and inactive are the calls of the source. The rule behind the calls is not given here.
Reply using exactly one outcome from active, inactive

CC(=O)O[C@H]1CC[C@]2(C)[C@H]3CC[C@]4(C)[C@@H]([C@H](C)CCCC(C)C)CC[C@H]4[C@@H]3C[C@@H]3N(N4C(=O)c5ccccc5C4=O)[C@@]32C1 (stereo partly specified)	active
CC(C)CCC[C@@H](C)[C@H]1CC[C@H]2[C@@H]3C[C@@H]4N(N5C(=O)c6ccccc6C5=O)[C@@]45C[C@@H](Cl)CC[C@]5(C)[C@H]3CC[C@]12C (stereo partly specified)	inactive
CC/C=C/C=C/C=C/C=C/C=O	inactive
O=C1c2ccccc2C(=O)N1SC(Cl)(Cl)Cl	active
ClCCl	active

[in] Identify the outcome logged in this assay for the molecule shown: CC(C)=CC1C(C(=O)OCc2coc(Cc3ccccc3)c2)C1(C)C (stereo unspecified)
[out] inactive

[in] For this molecule, state the assay outcome: `ClCC(Cl)(Cl)Cl`
[out] inactive

[in] Please state the recorded outcome for this molecule: CCN(C)C(=O)Oc1ccc2c(c1)C1(C)CCN(C)C1N2C (stereo unspecified)
[out] inactive

[in] Status in this test for `C#CCOCCn1cc[n+](C)c1/C=N/O` ?
[out] inactive

[in] Which result was noted for this molecule in the test: `C=C(Cl)Cl`
[out] inactive

[in] Call for entry `CNC(=O)Oc1cccc2c1OC(C)(C)C2` :
[out] inactive
